# System: CCRF-CEM
# MEASUREMENT PROTOCOL: Anti HIV-1 activity in human lymphocyte CEM/0 cell line
# Assay type: functional, cell-based
MEASURED METRIC: EC50 (nM)
Return type: number; implicit unit nM.

Worked cases, answers included:
>>> value("COC(=O)CNP(=O)(OCC1OC(n2cc(C)c(=O)[nH]c2=O)CC1N=[N+]=[N-])Oc1ccccc1 (centres undefined)")
97
>>> value("COC(=O)C(C)NP(=O)(OCC1OC(n2cc(C)c(=O)[nH]c2=O)CC1N=[N+]=[N-])Oc1ccc(OC)cc1 (centres undefined)")
57
>>> value("CCc1ccc(OP(=O)(NC(C)C(=O)OC)OCC2OC(n3cc(C)c(=O)[nH]c3=O)CC2N=[N+]=[N-])cc1 (centres undefined)")
48

Then this compound:
Which EC50 reading was recorded for the compound CCCc1ccc(OP(=O)(NC(C)C(=O)OC)OCC2OC(n3cc(C)c(=O)[nH]c3=O)CC2N=[N+]=[N-])cc1 (centres undefined) ?
41

###

# MEASUREMENT PROTOCOL: EC50 of HIV-2 in CEM/TK versus EC50 of HIV-2 in CEM/0
# Format: functional
Hi, to clarify the labels: t covers Ratio from 100 upward, f covers anything below 100.

Reference set, count: 6
>>> class_assignment("COC(=O)C(NP(=O)(OCC1OC(n2cc(C)c(=O)[nH]c2=O)CC1N=[N+]=[N-])Oc1ccccc1)C(C)C (stereo unspecified)")
"f"
>>> class_assignment("CCc1ccc(OP(=O)(NC(C)C(=O)OC)OCC2OC(n3cc(C)c(=O)[nH]c3=O)CC2N=[N+]=[N-])cc1 (stereo unspecified)")
"t"
>>> class_assignment("CCCc1ccc(OP(=O)(NC(C)C(=O)OC)OCC2OC(n3cc(C)c(=O)[nH]c3=O)CC2N=[N+]=[N-])cc1 (stereo unspecified)")
"f"
>>> class_assignment("COC(=O)CNP(=O)(OCC1OC(n2cc(C)c(=O)[nH]c2=O)CC1N=[N+]=[N-])Oc1ccccc1 (stereo unspecified)")
"t"
>>> class_assignment("COC(=O)C(Cc1ccccc1)NP(=O)(OCC1OC(n2cc(C)c(=O)[nH]c2=O)CC1N=[N+]=[N-])Oc1ccccc1 (stereo unspecified)")
"f"
>>> class_assignment("COC(=O)[C@H](C)NP(=O)(OC[C@H]1O[C@@H](n2cc(C)c(=O)[nH]c2=O)C[C@@H]1N=[N+]=[N-])Oc1ccccc1 (stereo partly specified)")
"t"

Does the reported Ratio for COC(=O)C(C)NP(=O)(OCC1OC(n2cc(C)c(=O)[nH]c2=O)CC1N=[N+]=[N-])Oc1ccc(OC)cc1 (stereo unspecified) fall at or above the 100 mark?
t

Does the reported Ratio for CCCCCc1ccc(OP(=O)(NC(C)C(=O)OC)OCC2OC(n3cc(C)c(=O)[nH]c3=O)CC2N=[N+]=[N-])cc1 (stereo unspecified) fall at or above the 100 mark?
t

Does the reported Ratio for COC(=O)C(C)NP(=O)(OCC1OC(n2cc(C)c(=O)[nH]c2=O)CC1N=[N+]=[N-])Oc1ccc(C)cc1 (stereo unspecified) fall at or above the 100 mark?
t

Does the reported Ratio for Cc1cn([C@H]2C[C@H](N=[N+]=[N-])[C@@H](CO)O2)c(=O)[nH]c1=O fall at or above the 100 mark?
t

Does the reported Ratio for COC(=O)C(C)NP(=O)(OCC1OC(n2cc(C)c(=O)[nH]c2=O)CC1N=[N+]=[N-])Oc1ccc(F)cc1 (stereo unspecified) fall at or above the 100 mark?
f
